- ASSAY PROCEDURE: Rat pharmacokinetic study of DZ2002
- Type: in vivo, Sprague-Dawley rats
- ASSAY SETUP: female, Sprague-Dawley, rat, blood, po, 5 mg/kg
Give measured half-life for each item. Keep answers brief.
One number for each entry, in h.

INSERT INTO measurements (compound, reported_endpoint, unit_abbrev, value_reported) VALUES
  ('Nc1ncnc2c1ncn2CCC(O)C(=O)O (centres unmarked)', 'half-life', 'h', 2.06);

Attention now turns to another entry.
Field half-life (entry "COC(=O)[C@@H](O)CCn1cnc2c(N)ncnc21" ) reads 0.31

---

Consider the following compounds; for each one, report its AUC(0-t).
- ASSAY PROCEDURE: Rat pharmacokinetic study of DZ2002
- Type: in vivo, Sprague-Dawley rats
- ASSAY SETUP: male, Sprague-Dawley, rat, blood, iv, 5 mg/kg
Give bare numbers, in µM·h.

INSERT INTO assay_data (compound, reported_endpoint, value_reported) VALUES
  ('COC(=O)[C@@H](O)CCn1cnc2c(N)ncnc21', 'AUC(0-t)', 0.495);

Shift focus to the following entry.
Record Nc1ncnc2c1ncn2CCC(O)C(=O)O (centres unmarked) , field AUC(0-t): 4.94

Each recorded value in this set is attributed to paper PMC6355468.
